Data provenance: the supplement of paper PMC10065799

Target: Fyn (UniProt P06241)
Sequence (P06241 whole entry, looked up): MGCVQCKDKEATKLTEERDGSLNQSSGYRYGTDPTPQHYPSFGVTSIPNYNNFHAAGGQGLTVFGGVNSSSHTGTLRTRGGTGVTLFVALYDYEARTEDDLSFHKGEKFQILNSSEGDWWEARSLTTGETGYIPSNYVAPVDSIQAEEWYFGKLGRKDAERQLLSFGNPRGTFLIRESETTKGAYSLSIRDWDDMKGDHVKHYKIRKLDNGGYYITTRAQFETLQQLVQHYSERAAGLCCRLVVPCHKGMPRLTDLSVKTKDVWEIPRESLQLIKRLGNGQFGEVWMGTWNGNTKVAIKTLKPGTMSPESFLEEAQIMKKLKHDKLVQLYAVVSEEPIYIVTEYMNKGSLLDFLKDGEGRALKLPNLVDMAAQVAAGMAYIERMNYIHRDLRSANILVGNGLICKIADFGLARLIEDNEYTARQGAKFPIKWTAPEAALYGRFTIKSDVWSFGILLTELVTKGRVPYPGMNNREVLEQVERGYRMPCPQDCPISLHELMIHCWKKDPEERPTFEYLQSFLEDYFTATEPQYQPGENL
Experiment: phosphorylation enrichment, bacterial display (enrichment ratio); higher = better substrate or ligand; peptides without Tyr show the background;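 note: 11-residue human phosphosite peptides and single-mutation variants displayed on the E. coli surface, counted by deep sequencing, each peptide's frequency after selection divided by its frequency in the unselected input library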;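 note: frequency after pTyr selection over input frequency; kinase dosed for 20-30% of maximal phosphorylation in three min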
Entry flag: 1 if phosphorylation enrichment reaches 0.5; 0 if it does not.

Evaluate ISGGGYRACPA [FGB_Y71_R74C] : phosphorylation enrichment at minimum 0.5?
0

For this sequence, is measured phosphorylation enrichment 0.5 or higher? SLQSEYVHYGG [CDC14A_Y591]
1

###

Target: Fyn (UniProt P06241)
Test: phosphorylation enrichment, bacterial display (enrichment ratio); higher = better substrate or ligand; peptides without Tyr show the background
recordedEndpoint: phosphorylation enrichment

residuecodes="VGEGPYLISDL [ABCC12_Y7]" target="Fyn (UniProt P06241)" recordedendpoint="phosphorylation enrichment" result=0.507
residuecodes="NALAQYQEMEK [BBS4_Y395]" target="Fyn (UniProt P06241)" recordedendpoint="phosphorylation enrichment" result=0.545
residuecodes="QYRFIYMAVQH [PTPN11_Y515]" target="Fyn (UniProt P06241)" recordedendpoint="phosphorylation enrichment" result=1.82

Please indicate phosphorylation enrichment recorded for DEEEEYEYMNR [ERBB3_Y1197_D1194E]
0.567

Supply phosphorylation enrichment value. Item: ALIKAYVKAVA [SMN1_Y43_D44V]
0.462
